- assay_target: plasma purified human complement protein C3 (human) (UniProt P01024)
- Sequence (P01024 23-667, chain 1 of 2): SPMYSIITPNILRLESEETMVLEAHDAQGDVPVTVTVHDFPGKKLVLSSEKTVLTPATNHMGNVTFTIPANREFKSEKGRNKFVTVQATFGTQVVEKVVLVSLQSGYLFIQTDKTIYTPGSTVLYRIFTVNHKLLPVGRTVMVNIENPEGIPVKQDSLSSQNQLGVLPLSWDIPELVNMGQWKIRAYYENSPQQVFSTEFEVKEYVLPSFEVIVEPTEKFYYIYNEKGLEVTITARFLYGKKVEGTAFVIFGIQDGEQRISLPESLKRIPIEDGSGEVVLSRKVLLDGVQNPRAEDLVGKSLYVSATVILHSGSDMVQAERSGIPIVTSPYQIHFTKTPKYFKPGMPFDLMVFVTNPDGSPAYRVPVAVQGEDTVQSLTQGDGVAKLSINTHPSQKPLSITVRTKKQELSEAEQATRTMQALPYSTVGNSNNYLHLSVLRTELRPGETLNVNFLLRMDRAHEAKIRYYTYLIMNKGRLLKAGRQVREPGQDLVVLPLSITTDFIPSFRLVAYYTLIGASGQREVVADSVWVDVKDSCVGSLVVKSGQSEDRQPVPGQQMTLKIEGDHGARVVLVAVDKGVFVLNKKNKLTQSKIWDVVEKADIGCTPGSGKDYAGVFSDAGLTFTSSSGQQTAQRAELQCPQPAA
- Sequence (P01024 672-1663, chain 2 of 2): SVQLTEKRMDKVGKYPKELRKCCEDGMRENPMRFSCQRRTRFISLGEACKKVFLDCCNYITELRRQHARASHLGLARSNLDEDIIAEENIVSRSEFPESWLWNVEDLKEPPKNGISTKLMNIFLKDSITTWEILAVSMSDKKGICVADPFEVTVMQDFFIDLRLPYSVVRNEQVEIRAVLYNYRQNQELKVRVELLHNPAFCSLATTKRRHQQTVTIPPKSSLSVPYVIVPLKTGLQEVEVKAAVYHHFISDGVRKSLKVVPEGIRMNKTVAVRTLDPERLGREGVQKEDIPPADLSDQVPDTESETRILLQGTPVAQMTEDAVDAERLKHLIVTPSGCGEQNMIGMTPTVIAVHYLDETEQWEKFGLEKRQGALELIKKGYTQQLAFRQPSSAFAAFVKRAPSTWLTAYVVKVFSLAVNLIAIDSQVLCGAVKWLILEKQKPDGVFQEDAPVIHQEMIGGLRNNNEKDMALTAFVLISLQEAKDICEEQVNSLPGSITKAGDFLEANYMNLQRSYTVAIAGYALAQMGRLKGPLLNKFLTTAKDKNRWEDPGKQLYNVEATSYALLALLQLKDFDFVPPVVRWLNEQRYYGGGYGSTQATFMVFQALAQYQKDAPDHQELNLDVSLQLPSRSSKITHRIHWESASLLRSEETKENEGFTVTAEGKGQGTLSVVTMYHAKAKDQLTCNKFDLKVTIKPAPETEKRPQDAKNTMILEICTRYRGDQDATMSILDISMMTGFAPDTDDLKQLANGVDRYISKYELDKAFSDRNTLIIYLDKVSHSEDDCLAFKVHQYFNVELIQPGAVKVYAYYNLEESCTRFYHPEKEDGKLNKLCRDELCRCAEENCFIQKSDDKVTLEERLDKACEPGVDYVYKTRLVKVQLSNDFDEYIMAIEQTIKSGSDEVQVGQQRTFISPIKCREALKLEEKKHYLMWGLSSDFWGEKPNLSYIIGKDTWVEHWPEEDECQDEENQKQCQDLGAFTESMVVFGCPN
- experiment_notes: cell-based or functional assay
readout_name: EC50 hC3 cleavage (nM)
Report as a plain number; the unit nM is understood.

>  <binder>
MTSP-1 protease domain F97L/F99L/C122S/Q175K/Q192V/D217M (enzyme) VVGGTDADEGEWPWQVSLHALGQGHICGASLISPNWLVSAAHCYIDDRGFRYSDPTQWTAFLGLHDQSQRSAPGVQERRLKRIISHPFFNDLTLDYDIALLELEKPAEYSSMVRPISLPDASHVFPAGKAIWVTGWGHTQYGGTGALILQKGEIRVINQTTCENLLPQKITPRMMCVGFLSGGVDSCVGDSGGPLSSVEADGRIFQAGVVSWGMGCAQRNKPGVYTRLPLFRDWIKENTGV

>  <unit_of_measure>
nM

>  <EC50 hC3 cleavage>
463

$$$$
>  <binder>
MTSP-1 protease domain I41D/G43A/F99L/C122S/G151N/Q192T/P232S/K239R (enzyme) VVGGTDADEGEWPWQVSLHALGQGHDCAASLISPNWLVSAAHCYIDDRGFRYSDPTQWTAFLGLHDQSQRSAPGVQERRLKRIISHPFFNDFTLDYDIALLELEKPAEYSSMVRPISLPDASHVFPAGKAIWVTGWGHTQYGGTNALILQKGEIRVINQTTCENLLPQQITPRMMCVGFLSGGVDSCTGDSGGPLSSVEADGRIFQAGVVSWGDGCAQRNKPGVYTRLSLFRDWIRENTGV

>  <unit_of_measure>
nM

>  <EC50 hC3 cleavage>
37.6

$$$$

Here is the next item to consider.
// query Query (binder): MTSP-1 protease domain Q38H/I41S/D96K/ins97aT/C122S/G151K/Q192A (enzyme) VVGGTDADEGEWPWQVSLHALGHGHSCGASLISPNWLVSAAHCYIDDRGFRYSDPTQWTAFLGLHDQSQRSAPGVQERRLKRIISHPFFNKFTTFDYDIALLELEKPAEYSSMVRPISLPDASHVFPAGKAIWVTGWGHTQYGGTKALILQKGEIRVINQTTCENLLPQQITPRMMCVGFLSGGVDSCAGDSGGPLSSVEADGRIFQAGVVSWGDGCAQRNKPGVYTRLPLFRDWIKENTGV ; field requested: EC50 hC3 cleavage
// result 19.2
